Where these numbers come from: ChEMBL document CHEMBL4732228

Assay: Water solubility of the compound at 1 mg incubated for 12 hrs under shaking condition by UV-HPLC analysis
Format: physicochemical
Quick list: solubility thermodynamic at 12 h per entry.

| compound | unit descriptor | censor symbol | solubility thermodynamic at 12 h |
| --- | --- | --- | --- |
| COc1c(O)ccc2cc3[n+](cc12)CCc1cc(O)c(O)cc1-3.[Cl-] | µM | = | 1500 |
| O=C1C=C(c2ccc(O)c(O)c2)OC(c2cc(O)ccc2O)C1 (stereo unspecified) | µM | = | 2340 |
| COc1ccc2cc3[n+](cc2c1OC)CCc1cc(O)c(O)cc1-3.[Cl-] | µM | = | 2750 |
| Oc1cc2c(cc1O)-c1cc3ccc(O)c(O)c3c[n+]1CC2.[Cl-] | µM | = | 2450 |
| COc1ccc2cc3[n+](cc2c1OC)CCc1cc2c(cc1-3)OCO2.[Cl-] [BERBERINE CHLORIDE] | µM | = | 1780 |
| Oc1cc2c(cc1O)C1Cc3ccc(O)c(O)c3CN1CC2 (stereo unspecified) | µM | > | 3340 |
| COc1ccc2cc[nH]c(=O)c2c1OC | µM | = | 5.2 |
| COc1ccc2ccn(CCc3cc4c(cc3Br)OCO4)c(=O)c2c1OC | µM | = | 15 |
| CCOC(CNC(=O)c1cccc(OC)c1OC)OCC | µM | = | 26 |
| COc1c(O)ccc2c1CN1CCc3cc(O)c(O)cc3C1C2 (stereo unspecified) | µM | = | 2370 |
| COc1ccc2c(c1OC)CN1CCc3cc4c(cc3C1C2)OCO4 (stereo unspecified) [TETRAHYDROBERBERINE] | µM | = | 7 |
